- Assay name: Nanoparticle zeta potential (Malvern Zetasizer)
- Assay type: physicochemical
- Run conditions: [mRNA] 0.01 mg/mL in 0.1×PBS; core LNP Compound 18, DSPC, β-sitosterol, Cholesterol, and DMG-PEG 2K
Readout kind: Zeta Potential (mV)

compound="CC(C)CCC[C@@H](C)[C@H]1CC[C@H]2[C@@H]3CC=C4C[C@@H](OC(=O)NCCCNCCCCN)CC[C@]4(C)[C@H]3CC[C@]12C [SA30]" result_value=8.7
compound="CC(C)CCC[C@@H](C)[C@H]1CC[C@H]2[C@@H]3CC=C4C[C@@H](OC(=O)N(CCCN)CCCCN)CC[C@]4(C)[C@H]3CC[C@]12C [SA29]" result_value=8.3
compound="CC(C)CCC[C@@H](C)[C@H]1CC[C@H]2[C@@H]3CC=C4C[C@@H](OC(=O)NCCNC(=N)N)CC[C@]4(C)[C@H]3CC[C@]12C [SA23]" result_value=12.7
compound="CC(C)CCC[C@@H](C)[C@H]1CC[C@H]2[C@@H]3CC=C4C[C@@H](OC(=O)CCC(=O)N(CCCN)CCCCN)CC[C@]4(C)[C@H]3CC[C@]12C [SA31]" result_value=8.6

FYI, the data here is from patent US20250235531A1.
